We begin with a simple list: items and their reported pKd.
Biological target: T1, His-human LIGHT (human)
T1 construct: also called His-huLIGHT; free LIGHT
T1 chain: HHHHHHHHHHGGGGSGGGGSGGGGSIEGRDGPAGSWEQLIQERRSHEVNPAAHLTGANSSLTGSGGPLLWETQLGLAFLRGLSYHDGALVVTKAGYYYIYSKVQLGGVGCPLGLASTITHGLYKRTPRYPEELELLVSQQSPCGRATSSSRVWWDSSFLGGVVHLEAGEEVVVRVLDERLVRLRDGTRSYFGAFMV
Assay: SPR, Biacore 8K, antibody on CM5 chip, human LIGHT
Worth noting: pKd values are minus log10 of concentrations stated in mol/L.

pKd for hum_LT-m37-11 (antibody, human IgG4, V domains shown, humanized from LT-m37) VH: QVQLVQSGAEVKKPGASVKVSCKASGYSFTGYFINWVRQAPGQGLEWIGRIYPYNVNTFYNQNFKGRATMTADKSTSTAYMELSSLRSEDTAVYYCGRGTHYYGSSGAMDYWGQGTLVTVSS VL: EIVLTQSPATLSVSPGERATLSCKASQNVGTAVAWYQQKPGQSPRLLIYSASNRYTGIPARFSGSGSGTEFTLTISSLQSEDFAVYYCQQYSSYPYTFGGGTKVEIK is 10.21

pKd reading for hum_LT-m37-4 (antibody, human IgG4, V domains shown, humanized from LT-m37) VH: QVQLVQSGAEVKKPGASVKVSCKASGYSFTGYFINWVRQAPGQGLEWIGRIYPYNVNTFYNQNFKGRVTMTADKSTSTAYMELSSLRSEDTAVYYCGRGTHYYGSSGAMDYWGQGTLVTVSS VL: EIVLTQSPATLSVSPGERATLSCKASQNVGTAVAWYQQKPGQSPRLLIYSASNRYTGIPARFSGSGSGTEFTLTISSLQSEDFAVYFCQQYSSYPYTFGGGTKVEIK : 9.62

Measured pKd of hum_LT-m37-12 (antibody, human IgG4, V domains shown, humanized from LT-m37) VH: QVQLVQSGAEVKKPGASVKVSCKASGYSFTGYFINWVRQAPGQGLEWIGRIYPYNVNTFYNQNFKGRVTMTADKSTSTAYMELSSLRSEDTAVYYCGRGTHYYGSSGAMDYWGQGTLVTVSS VL: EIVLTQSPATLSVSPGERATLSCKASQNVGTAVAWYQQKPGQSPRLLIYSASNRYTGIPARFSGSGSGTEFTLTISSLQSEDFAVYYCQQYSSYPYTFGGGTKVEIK : 10.24

Record summary for hum_LT-m37-8 (antibody, human IgG4, V domains shown, humanized from LT-m37) VH: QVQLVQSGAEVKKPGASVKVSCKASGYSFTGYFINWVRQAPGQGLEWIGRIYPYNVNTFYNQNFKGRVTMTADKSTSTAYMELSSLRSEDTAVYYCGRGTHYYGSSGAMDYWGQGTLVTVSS VL: EIVMTQSPATLSVSPGERATLSCKASQNVGTAVAWYQQKPGQSPRLLIYSASNRYTGIPARFSGSGSGTEFTLTISSLQSEDFAVYFCQQYSSYPYTFGGGTKVEIK : reported pKd = 10.42

// sample hum_LT-m37-6 (antibody, human IgG4, V domains shown, humanized from LT-m37) VH: QVQLVQSGAEVKKPGASVKVSCKASGYSFTGYFINWVRQAPGQGLEWIGRIYPYNVNTFYNQNFKGRATLTADKSTSTAYMELSSLRSEDTAVYYCGRGTHYYGSSGAMDYWGQGTLVTVSS VL: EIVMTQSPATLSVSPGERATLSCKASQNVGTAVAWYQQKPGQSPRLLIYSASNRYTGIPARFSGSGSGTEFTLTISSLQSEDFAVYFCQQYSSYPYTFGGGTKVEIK , its pKd was 10.39
